- experimental_details: solvent given as SMILES
- assay_conditions: in CN(C)C=O
We label by threshold. Values of absorption maximum strictly beneath 400 nm are True. Values of 400 nm and up are False.

// below: answered molecules
{"columns": ["molecule", "class_name"],
 "data": [
  ["CCN(CC)c1ccc2cc3ccc(=[N+](CC)CC)cc-3oc2c1", "False"],
  ["CCn1c2ccccc2c2cc(C#Cc3cc(C#Cc4ccc5c(c4)c4ccccc4n5CC)nc(S(C)(=O)=O)n3)ccc21", "False"],
  ["CCN1c2ccc(-c3cc(C(F)(F)F)[nH]n3)cc2Sc2cc(-c3cc(C(F)(F)F)[nH]n3)ccc21", "True"],
  ["CN(C)c1ccc(/C=C/c2cc[n+](CCC[n+]3ccc(/C=C/c4ccc(N(C)C)cc4)cc3)cc2)cc1", "False"],
  ["CCN(CC)c1ccc(/C=N/c2ccccc2/N=C/c2ccc(N(CC)CC)cc2O)c(O)c1", "False"],
  ["CN(C)/C=N\\c1ccc2c3c(cccc13)C(=O)c1ccccc1-2", "False"],
  ["CC1=[N+]2C(=C(c3ccc(-c4c5ccccc5c(-c5ccccc5)c5ccccc45)cc3)c3ccc(C)n3[B-]2(F)F)C=C1", "False"],
  ["CCn1c2ccccc2c2cc(C#Cc3cc(C#Cc4ccc5c(c4)c4ccccc4n5CC)ncn3)ccc21", "True"]
]}

-- ask Bench note: check whether CCN(CC)c1ccc(-c2nc(Oc3ccc(-c4nc5cc([N+](=O)[O-])ccc5[nH]4)cc3)nc(Oc3ccc(-c4nc5cc([N+](=O)[O-])ccc5[nH]4)cc3)n2)cc1 shows absorption maximum below 400 nm
-- reply True

-- ask Bench note: check whether COC(=O)C(Cc1ccc2oc(-c3ccc(-n4c5ccccc5c5ccccc54)cc3)nc2c1)NC(=O)OC(C)(C)C (stereo not given) shows absorption maximum below 400 nm
-- reply True

----------
- experimental_details: solvent given as SMILES
- assay_conditions: in CC#N
assay_readout: absorption maximum (nm)
One number for each entry, in nm.

{"columns": ["structure_smiles_string", "absorption maximum, nm"],
 "data": [
  ["c1ccc(COc2cc(C[n+]3ccc(-c4cc[n+](Cc5cc(OCc6ccccc6)cc(OCc6ccccc6)c5)cc4)cc3)cc(OCc3ccccc3)c2)cc1", 261]
]}

Provide absorption maximum values for the following items, in order.
1. c1ccc(-c2nc(-c3ccccc3)n3ccccc23)cc1
2. OCCSc1cccc2[n+]1[B-](F)(F)n1c(c3cccc4cccc1c43)=N2
3. CC1=CC(C)=[N+]2C1=C(c1ccc(N3CCCCC3)cc1)c1c(C)cc(C)n1[B-]2(F)F
4. CN(C)c1ccc(C2=Nc3sc4cc(F)ccc4[n+]3[B-](F)(F)O2)cc1
5. COc1cccc(OC)c1C1=C2C(C)=CC(C)=[N+]2[B-](F)(F)n2c(C)cc(C)c21

-- reply
[305, 480, 496, 422, 500]

Provide absorption maximum values for the following items, in order.
1. CC(=O)c1c2c(cc3ccc(N(C)C)cc13)CCC2
2. OC1(c2ccc(-c3cccs3)s2)CCCC1
3. O=C1O/C(=C\c2ccccc2)c2ccccc21
4. C#Cc1cccc2ccccc12

-- reply
1: 375; 2: 343; 3: 335; 4: 306

Provide absorption maximum values for the following items, in order.
1. Cc1ccc(C(=O)/C=C/c2ccc(N(C)C)cc2)cc1
2. O=C1/C(=C\c2ccc3oc4ccccc4c3c2)S(=O)(=O)c2ccccc21
3. O=c1[nH]c2[n+](c3ccccc13)[B-](F)(F)Oc1ccccc1-2
4. F[B-]1(F)n2c(Cl)ccc2C(c2c(Cl)cccc2Cl)=C2C=CC(NCc3ccccc3)=[N+]21

-- reply
1: 411; 2: 365; 3: 343; 4: 479

Provide absorption maximum values for the following items, in order.
1. CC1=[N+]2C(=C(c3ccc(-c4c5ccccc5c(-c5ccccc5)c5ccccc45)cc3)c3ccc(C)n3[B-]2(F)F)C=C1
2. Clc1nc(Cl)nc(Nc2ccc3cc4ccccc4cc3c2)n1
3. COc1ccccc1-c1nc(-c2ccccc2)c2ccccn12
4. CN(C)c1ccc(C2=Nc3scc(-c4ccc([N+](=O)[O-])cc4)[n+]3[B-](F)(F)O2)cc1
5. CN(C)c1ccc(C(=O)Nc2ccc(F)cc2)cc1
6. Cn1ccc(-c2nc3ccccc3nc2/C=C/N2CCCC2)c1
7. COc1ccc(-n2nc(C(=O)N3CCCC3)c(N3CCCC3)n2)cc1

-- reply
508
398
374
411
314
445
328

-- ask Identify absorption maximum associated with the compound c1ccc(-c2oc(-c3ccccc3)c3ccccc23)cc1
-- reply 411

----------
- experimental_details: solvent given as SMILES
- assay_conditions: in ClC(Cl)Cl
We label by threshold. Values of absorption maximum strictly beneath 400 nm are true. Values of 400 nm and up are false.

{"columns": ["compound", "class_name"],
 "data": [
  ["CC(C)(C)c1ccc2oc3nc4oc5cc(-n6c7ccccc7c7ccccc76)ccc5c4cc3c2c1", "true"],
  ["CCCCCCN1C(=O)c2cccc3cc(/N=C\\c4cnc5ccccc5c4)cc(c23)C1=O", "true"],
  ["CCOC(=O)C(C(=O)OCC)C1=[N+]2C(=C(c3ccc(C)cc3)c3ccc(Cl)n3[B-]2(F)F)C=C1", "false"],
  ["COc1ccc(-n2nc(C#N)c(NC3CCCCC3)n2)cc1", "true"],
  ["c1ccc(-c2nc(-c3ccccc3)n3ccccc23)cc1", "true"],
  ["Cc1cc(=O)oc2cc3c4ccccc4c4ccccc4c3cc12", "true"],
  ["N#Cc1nc(N(Cc2ccccc2)Cc2ccccc2)c(C#N)nc1N(Cc1ccccc1)Cc1ccccc1", "false"],
  ["CC(C)(C)C1Nc2ccccc2C(=O)N1Cc1ccccc1 (stereo not given)", "true"]
]}

Note: attention shifts to another entry.
-- ask Bench note: check whether CCOC(=O)/C(C#N)=C\c1cn(-c2ccccc2)nc1-c1ccccc1 shows absorption maximum below 400 nm
-- reply true

----------
- experimental_details: solvent given as SMILES
- assay_conditions: in CC1CCCCC1
For each entry below, report its absorption maximum value.
Give bare numbers, in nm.

Provide absorption maximum values for the following items, in order.
1. COC(=O)C(NC(=O)OC(C)(C)C)c1ccc2oc(-c3ccc(O)cc3O)nc2c1 (centres undefined)
2. C(=C\c1c2ccccc2cc2ccccc12)/c1ccc2ccccc2n1
3. Nc1ccc2c(C(F)(F)F)cc(=O)oc2c1
4. CNc1cccc2c1C(=O)c1ccccc1C2=O

-- reply
1: 336; 2: 390; 3: 348; 4: 489

----------
For each entry below, report its absorption maximum value.
- experimental_details: solvent given as SMILES
- assay_conditions: in c1ccccc1
Give bare numbers, in nm.

{"columns": ["molecule", "absorption maximum [nm]"],
 "data": [
  ["Cc1cc(C)c(B(c2c(C)cc(C)cc2C)c2cc3ccc4ccccc4c3c3c2cc(N(C)C)c2ccccc23)c(C)c1", 440]
]}

Provide absorption maximum values for the following items, in order.
1. COc1ccc2ccc3oc(=O)c(-c4ccccc4)nc3c2c1
2. CN(C)c1ccc2nc(-c3ccc(C(=O)OC(C)(C)C)cc3)sc2c1
3. CCN(CC)c1ccc(Nc2cc3oc(-c4ccc(C#N)cc4)nc3c3ccccc23)cc1
4. CN(C)c1cc(C#N)c(N(C)C)c(C#N)c1
5. CCCCCCCCCCCCCCCC[n+]1ccc(/C=C/c2ccccc2O)cc1
6. COc1ccc([C@@H]2C[C@](O)(c3ccccn3)C[C@](O)(c3ccccn3)[C@H]2C(=O)c2ccc(N(c3ccccc3)c3ccccc3)cc2)cc1
7. CCCCCCCCCCCCCCCC[n+]1ccc(/C=C(\C)c2ccccc2)cc1
8. CCOC(=O)CSc1nc(-c2ccc(OC)cc2)c(C)c(C#N)c1C#N

-- reply
1. 404
2. 392
3. 420
4. 395.73
5. 553.7
6. 370
7. 386.8
8. 374

Provide absorption maximum values for the following items, in order.
1. CC(C)(C)C1Nc2ccccc2C(=O)N1Cc1ccccc1 (stereo unspecified)
2. O=C1c2ccccc2-c2ccccc21

-- reply
[339, 380]

----------
- experimental_details: solvent given as SMILES
- assay_conditions: in CO
assay_readout: absorption maximum (nm)
Numbers only, in nm.

Past entries and their recorded results:
{"columns": ["structure_smiles_string", "assay_readout", "unit_descriptor", "numeric_value"],
 "data": [
  ["CN(C)c1ccc(C#Cc2ccc(-c3nc(C#N)c(C#N)n3C)cc2)cc1", "absorption maximum", "nm", 356],
  ["COC(=O)COc1ccc(/C=C/C2=[N+]3C(=C(c4ccc(N(C)C)cc4)c4c(C)cc(C)n4[B-]3(F)F)C(C)=C2)cc1", "absorption maximum", "nm", 566]
]}

Provide absorption maximum values for the following items, in order.
1. Cn1c(/C=C/c2ccc(/C=C/c3nc4ccccc4[nH]3)cc2)[n+](C)c2ccccc21
2. Cc1nc2c(ccc3c2sc(/C=C/C=C/c2ccc(N(C)C)cc2)[n+]3C)s1
3. F[B-]1(F)n2cccc2C(c2ccccc2)=C2C=CC(N3CCOCC3)=[N+]21

-- reply
[391, 574, 479]
